ASSAY_NOTES: Distribution of prodrug and metabolites in tissues after application to the back of killed rats
Format: in vivo
ASSAY_CONDITIONS: Wistar, rat, 50 mg/kg, 3 h after 50 mg/kg prodrug citric acid salt on the back of killed rat, 37° C.; read-out: amount in Brain
PARAMETER_MEASURED: concentration at 3 h (ng/g)
The response must be a number in ng/g with no trailing unit.

Could you share which concentration at 3 h value was measured for O=C(O)c1ccccc1O ?
30000

---

Test system: human skin tissue
ASSAY_CONDITIONS: pH 7.4
Where In vitro penetration rate (apparent flux), prodrug compounds equals or exceeds 2000 μg/cm^2/h, the correct label is yes; where it does not, the label is no.

Example entries begin here.
                                   molecule  answer_label
0  CC(=O)O.CCN(CC)CCOC(=O)Cc1cccc(C(=O)c2ccc(Br)cc2)c1N            no
1  CC(=O)O.CCN(CC)CCOC(=O)C(C)c1cccc(Oc2ccccc2)c1 (stereo not drawn)            no
2  CN(C)CCCC(=O)OC1=C(C(=O)Nc2ccccn2)N(C)S(=O)(=O)c2ccccc21.Cl            no

Please tell me: is the molecule CC(=O)O.CCN(CC)CCOC(=O)C(C)c1ccc2c(c1)Cc1cccnc1O2 (stereo not drawn) at or over 2000 μg/cm^2/h in terms of In vitro penetration rate (apparent flux), prodrug compounds?
yes

CC(=O)O.CCN(CC)CCOC(=O)c1cccnc1Nc1cccc(C(F)(F)F)c1 ?
no

Then what about the molecule CC(=O)O.CCN(CC)CCOC(=O)c1ccccc1Nc1cccc(C)c1C ?
yes

What do you get for CC(=O)O.CCN(CC)CCOC(=O)C(C)c1ccc(C(=O)c2cccs2)cc1 (stereo not drawn) ?
yes

And what about the molecule CC(=O)O.CCN(CC)CCOC(=O)Cc1cccc(C(=O)c2ccccc2)c1N ?
no
